Tested on: Klebsiella pneumoniae B 88 strain producing NDM-1, SHV, TEM and CTXM beta-lactamase enzymes
Experiment: Time kill study against K. pneumoniae B 88
Type: cell-based
Details: 4 hours; each agent at 4 mcg/ml, alone or in combination
# maps each entry to its Bacterial count (Log10CFU/ml) 4 hours
Give your result in Log10CFU/ml as a bare value.

Some solved cases for reference:
O=C1N2C[C@@H](CC[C@H]2c2nnc(C3CCNCC3)o2)N1OS(=O)(=O)O; 8.15
C[C@H]1[C@H](NC(=O)/C(=N\OC(C)(C)C(=O)O)c2csc(N)n2)C(=O)N1S(=O)(=O)O [Aztreonam, reference compound]; 8.7
O=C(NNC(=O)[C@@H]1CC[C@@H]2CN1C(=O)N2OS(=O)(=O)O)[C@@H]1CCNC1; 8.05
C[C@@H](O)[C@H]1C(=O)N2C(C(=O)O)=C(SCCN=CN)C[C@H]12 [Imipenem, reference compound]; 8.7
O=C1N2C[C@@H](CC[C@H]2c2nnc(CC3CNC3)o2)N1OS(=O)(=O)O; 8.3
NC(=O)c1nnc([C@@H]2CC[C@@H]3CN2C(=O)N3OS(=O)(=O)O)o1; 8.2
N#C[C@@H]1CC[C@@H]2CN1C(=O)N2OS(=O)(=O)[O-].[Na+]; 8.2

Read off the recorded Bacterial count (Log10CFU/ml) 4 hours for `O=C(NOC[C@@H]1CCCCN1)[C@@H]1CC[C@@H]2CN1C(=O)N2OS(=O)(=O)O`
8.3
